Exercise: for every item that follows, state its recorded % Inhibition Relative to Parent (pSTAT, FCWF-4 cells).
- TARGET_OF_ASSAY: T1, wildtype feline IL-31 protein (Feline_IL31_wildtype) (feline); further: test concentration or dose not given here
- T1 chain: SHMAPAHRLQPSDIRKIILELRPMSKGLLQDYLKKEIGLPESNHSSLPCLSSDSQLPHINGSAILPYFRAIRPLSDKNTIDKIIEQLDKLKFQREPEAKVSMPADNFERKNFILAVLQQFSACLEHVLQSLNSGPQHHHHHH
- TEST_NAME: cell-based or functional assay
Give bare numbers, in %.

Prompt line: Please give the measured % Inhibition Relative to Parent (pSTAT, FCWF-4 cells) for this binder: A36 (antibody, V domains shown) VH: QVLLVQSGAEVRTPGASVKIFCKASGYSFTSYTIAWLRQAPAQGLEWMGNINPTSGYTENNQRFKDRLTLTADTSTNTAYMELSSLRSADTAMYYCARWGFKYDGEWSFDVWGAGTTVTVSS VL: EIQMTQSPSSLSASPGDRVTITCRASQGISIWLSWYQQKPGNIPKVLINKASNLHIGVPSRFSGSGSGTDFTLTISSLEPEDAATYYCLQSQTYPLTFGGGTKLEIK
Response line: 25.2

More entries:
Prompt line: Please give the measured % Inhibition Relative to Parent (pSTAT, FCWF-4 cells) for this binder: A37 (antibody, V domains shown) VH: QVLLVQSGAEVRTPGASVKIFCKASGYSFTSYTIHWLRQAPAQGLEWMGAINPTSGYTENNQRFKDRLTLTADTSTNTAYMELSSLRSADTAMYYCARWGFKYDGEWSFDVWGAGTTVTVSS VL: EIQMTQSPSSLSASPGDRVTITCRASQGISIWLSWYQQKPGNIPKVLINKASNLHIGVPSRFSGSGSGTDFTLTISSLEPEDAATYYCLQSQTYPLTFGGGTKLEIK
Response line: 52.1
